- TARGET DESC: Sphingosine 1-phosphate receptor 1 (Homo sapiens, UniProt P21453)
- Sequence (P21453 whole entry): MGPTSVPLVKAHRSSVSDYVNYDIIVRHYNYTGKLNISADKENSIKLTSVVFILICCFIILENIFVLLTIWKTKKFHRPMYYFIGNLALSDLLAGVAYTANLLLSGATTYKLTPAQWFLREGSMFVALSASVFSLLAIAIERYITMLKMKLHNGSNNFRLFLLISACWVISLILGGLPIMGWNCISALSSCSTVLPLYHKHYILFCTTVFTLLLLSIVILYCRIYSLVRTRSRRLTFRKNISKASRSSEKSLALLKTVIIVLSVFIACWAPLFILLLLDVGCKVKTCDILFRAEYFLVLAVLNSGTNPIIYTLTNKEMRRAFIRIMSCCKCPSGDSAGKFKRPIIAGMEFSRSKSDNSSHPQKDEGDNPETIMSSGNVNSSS
- ASSAY INFO: Agonist activity at S1P1 receptor expressed in CHO cells after 60 mins by [35S]-GTPgammaS binding assay
- Assay type: functional, cell-based
pEC50: −log10 of the molar value.
ASSAY METRIC: pEC50

CN(c1cc(C(=O)Nc2ccc3[nH]nnc3c2)ncn1)C1CCCCC1
5.14

[I] Cc1cc(S(N)(=O)=O)ccc1NC(=O)c1cc(N(CC2CC2)C2CCCCC2)ncn1
[II] O=C(Nc1ccc2[nH]ccc2c1)c1cc(NC2CCCCC2)ncn1
[III] CCCN(CCC)c1cc(C(=O)Nc2ccc(O)cc2)ncn1
[IV] Cc1cc(CN2CC(C(=O)O)C2)ccc1NC(=O)c1cc(N(CC2CC2)C2CCCCC2)ncn1
Q. Endpoint returns the given compounds ordered by ascending pEC50. Returns: the labels listed in the requested order.
A. II, III, IV, I
(II: 4.92, III: 6.43, IV: 8.52, I: 8.80)

Sourced from ChEMBL document CHEMBL1154985
